Target: T1, human IL-18BP (human, UniProt O95998 31-194)
T1 construct: UniProt printed as 095998; also called hIL-18BP
T1 sequence: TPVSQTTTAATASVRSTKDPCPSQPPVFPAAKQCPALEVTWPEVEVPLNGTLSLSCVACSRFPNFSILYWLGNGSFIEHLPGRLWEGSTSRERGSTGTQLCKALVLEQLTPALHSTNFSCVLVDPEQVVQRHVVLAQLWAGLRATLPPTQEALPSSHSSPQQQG
Test: BLI, apparent KD
pKd: −log10 of the molar value.
Binary classification by pKd, with 9 as an inclusive lower bound for Satisfied; all other cases are Not satisfied.

>>> class_label("SA301a HC-S98Y (antibody, name in Kabat numbering, V domains shown, IgG1 kappa) VH: QVQLQESGPGLVKPSQTLSLTCTVSGYSITSDYNSHWIRQPPGKGLEWIGYIHYSGSTNYNPSLKSRVTISRDTSKNQFSLKLSSVTAADTAVYYCARNYGYIYVNYFDYWGQGTLVTVSS VL: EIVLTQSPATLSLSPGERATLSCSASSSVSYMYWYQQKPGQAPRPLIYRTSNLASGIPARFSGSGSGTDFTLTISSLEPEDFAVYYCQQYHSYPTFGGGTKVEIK")
"Satisfied"

Input line: Has SA301a HC-S98H (antibody, name in Kabat numbering, V domains shown, IgG1 kappa) VH: QVQLQESGPGLVKPSQTLSLTCTVSGYSITSDYNSHWIRQPPGKGLEWIGYIHYSGSTNYNPSLKSRVTISRDTSKNQFSLKLSSVTAADTAVYYCARNYGHIYVNYFDYWGQGTLVTVSS VL: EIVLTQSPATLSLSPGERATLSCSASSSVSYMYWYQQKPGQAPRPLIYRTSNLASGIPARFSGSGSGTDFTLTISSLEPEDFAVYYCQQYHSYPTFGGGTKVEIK a recorded pKd greater than or equal to 9?
Output line: Not satisfied

Input line: Reported pKd reaches at least 9 for SA301a HC-G97M (antibody, name in Kabat numbering, V domains shown, IgG1 kappa) VH: QVQLQESGPGLVKPSQTLSLTCTVSGYSITSDYNSHWIRQPPGKGLEWIGYIHYSGSTNYNPSLKSRVTISRDTSKNQFSLKLSSVTAADTAVYYCARNYMSIYVNYFDYWGQGTLVTVSS VL: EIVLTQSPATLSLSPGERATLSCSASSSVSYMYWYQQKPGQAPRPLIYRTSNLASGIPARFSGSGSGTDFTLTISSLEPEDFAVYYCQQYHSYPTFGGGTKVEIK ?
Output line: Satisfied

Data provenance is patent US20250368745A1.
